Each item that follows carries a reported % of Control Specific Binding 2nd.
Molecular target: human CB1 (hCB1) receptor (Homo sapiens)
Construct: expressed in transfected cells; host or cells: CHO (Chinese hamster ovary) cells, membranes
Sequence (P21554 whole entry): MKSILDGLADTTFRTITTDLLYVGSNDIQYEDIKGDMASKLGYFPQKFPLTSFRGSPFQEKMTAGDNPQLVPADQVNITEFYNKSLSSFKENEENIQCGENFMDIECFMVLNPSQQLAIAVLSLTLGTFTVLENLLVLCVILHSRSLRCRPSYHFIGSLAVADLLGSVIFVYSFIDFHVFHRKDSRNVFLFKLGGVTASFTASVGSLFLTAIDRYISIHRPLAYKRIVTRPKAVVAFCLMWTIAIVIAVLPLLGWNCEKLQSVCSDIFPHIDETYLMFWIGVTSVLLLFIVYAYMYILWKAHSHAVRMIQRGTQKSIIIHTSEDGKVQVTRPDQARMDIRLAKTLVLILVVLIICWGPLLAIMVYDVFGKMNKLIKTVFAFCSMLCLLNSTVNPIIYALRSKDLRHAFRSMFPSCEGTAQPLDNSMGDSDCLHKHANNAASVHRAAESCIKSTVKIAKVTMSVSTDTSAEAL
Assay: CB1 binding assay, competitive binding of [3H]CP 55940
Conditions: CB1; Test Concentration 1.0E−05 (MD); 2nd determination
Answer with the value and then the unit.

Here CCCCCCN1C(=O)/C(=N\NC(=O)Cc2ccccc2)c2ccccc21 [Example 7] was tested on human CB1 (hCB1) receptor (Homo sapiens), and its % of Control Specific Binding 2nd came to 2.6%

Here CCCCCCN1C(=O)/C(=N\NC(=O)c2ccccc2)c2ccccc21 [Example 6] was tested on human CB1 (hCB1) receptor (Homo sapiens), and its % of Control Specific Binding 2nd came to 4.5%

Here CCCCCCN1C(=O)/C(=N\NC(=S)Nc2ccccc2)c2ccccc21 [Example 2] was tested on human CB1 (hCB1) receptor (Homo sapiens), and its % of Control Specific Binding 2nd came to 56.1%

Next:
Here O=C1/C(=N\NS(=O)(=O)c2ccccc2)c2ccccc2N1CCC1CCCCC1 [Example 8] was tested on human CB1 (hCB1) receptor (Homo sapiens), and its % of Control Specific Binding 2nd came to 90%

---

Molecular target: hCB2 receptor (Homo sapiens, UniProt P34972)
Construct: purchased ES-111-MG; host or cells: CHO membrane extracts
Sequence (P34972 whole entry): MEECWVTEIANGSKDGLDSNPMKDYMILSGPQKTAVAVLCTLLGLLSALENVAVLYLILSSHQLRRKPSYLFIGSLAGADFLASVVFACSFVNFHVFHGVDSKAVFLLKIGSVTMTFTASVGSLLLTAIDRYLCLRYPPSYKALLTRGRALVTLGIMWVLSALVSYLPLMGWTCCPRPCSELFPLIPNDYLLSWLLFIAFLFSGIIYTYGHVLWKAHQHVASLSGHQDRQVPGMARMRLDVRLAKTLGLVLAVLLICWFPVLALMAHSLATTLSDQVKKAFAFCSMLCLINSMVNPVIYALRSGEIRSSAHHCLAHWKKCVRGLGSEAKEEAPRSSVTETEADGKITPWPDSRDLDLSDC
Assay: CB2 functional assay, [35S]GTP-γ-S binding
Assay type: biochemical
Settings: Table 7; relative to the efficacy of CP55940
Everything with Emax lower than 50% is not satisfied; everything else, including exactly 50%, is satisfied.

The following compounds have reported results that may help.
Q: Does the reported Emax for O=C(Cc1ccccc1)N/N=C1\C(=O)N(CCC2CCCCC2)c2ccccc21 fall at or above the 50% mark?
A: not satisfied

Q: Does the reported Emax for CCCCCCN1C(=O)/C(=N\NC(=O)Cc2ccccc2)c2ccccc21 fall at or above the 50% mark?
A: not satisfied

Q: Does the reported Emax for O=C(N/N=C1\C(=O)N(CCC2CCCCC2)c2ccccc21)c1ccccc1 fall at or above the 50% mark?
A: satisfied

Q: Does the reported Emax for CCCCCCN1C(=O)/C(=N\NC(=O)c2ccccc2)c2ccccc21 fall at or above the 50% mark?
A: satisfied

Now examine the next entry.
Q: Does the reported Emax for CCCCCCC(C)(C)c1ccc([C@@H]2C[C@H](O)CC[C@H]2CCCO)c(O)c1 [CP55,940, reference compound] fall at or above the 50% mark?
A: satisfied

---

Target: hCB2 receptor (Homo sapiens)
Construct: purchased ES-111-MG; host or cells: CHO membrane extracts
Assay: CB2 functional assay, [35S]GTP-γ-S binding
Assay type: biochemical
Conditions: Table 9; mean of two determinations; read-out: [35S]GTP-γ-S hCB2 EC50 (nM ± SEM)
Entries whose EC50 is below 80 nM take yes (1); entries at or above 80 nM take no (0).

The following compounds have reported results that may help.
Q: In the record for CCCCCCN1C(=O)/C(=N\NC(=O)c2ccccc2)c2ccccc21 [Example 6] , is EC50 less than 80 nM?
A: yes (1)

Q: In the record for CCCN1C(=O)/C(=N\NC(=O)c2ccccc2)c2ccccc21 [Example 21] , is EC50 less than 80 nM?
A: no (0)

Q: In the record for CCCCCCN1C(=O)/C(=N\NC(=O)c2ccccc2)c2cc(F)ccc21 [Example 33] , is EC50 less than 80 nM?
A: no (0)

Q: In the record for O=C(N/N=C1\C(=O)N(CC2CCCCC2)c2ccccc21)c1ccccc1 [Example 25] , is EC50 less than 80 nM?
A: yes (1)

Q: In the record for CCCCCCN1C(=O)/C(=N\NC(=O)OC(C)(C)C)c2ccccc21 [Example 14] , is EC50 less than 80 nM?
A: yes (1)

Continuing:
Q: In the record for CCCCCN1C(=O)/C(=N\NC(=O)c2ccccc2)c2ccccc21 [Example 23] , is EC50 less than 80 nM?
A: no (0)

Q: In the record for CCCCCCN1C(=O)/C(=N\NC(=O)c2ccccc2)c2cccc(Cl)c21 [Example 29] , is EC50 less than 80 nM?
A: no (0)

Q: In the record for CCCCN1C(=O)/C(=N\NC(=O)c2ccccc2)c2ccccc21 [Example 22] , is EC50 less than 80 nM?
A: yes (1)

Q: In the record for O=C(N/N=C1\C(=O)N(Cc2ccc(Cl)cc2)c2ccccc21)c1ccccc1 [Example 26] , is EC50 less than 80 nM?
A: no (0)

Q: In the record for CCCCCCN1C(=O)/C(=N\NC(=O)c2ccccc2)c2cccc(C)c21 [Example 28] , is EC50 less than 80 nM?
A: no (0)

Q: In the record for CCCCCCN1C(=O)/C(=N\NC(=O)c2ccc(OC)cc2)c2ccccc21 [Example 17] , is EC50 less than 80 nM?
A: no (0)

Q: In the record for CCCCCCN1C(=O)/C(=N\NC(=O)c2cccc3ccccc23)c2ccccc21 [Example 19] , is EC50 less than 80 nM?
A: no (0)

---

Target: human CB2 (hCB2) receptor (Homo sapiens)
Construct: expressed in transfected cells; host or cells: CHO (Chinese hamster ovary) cells, membranes
Assay: CB2 binding assay, competitive binding of [3H]WIN 55212-2
Details: CB2; Test Concentration 1.0E−05 (MD); mean
Entries whose % of Control Specific Binding Mean is below 90% take Fulfilled; entries at or above 90% take Not fulfilled.

The following compounds have reported results that may help.
Q: In the record for CCCCCCN1C(=O)/C(=N\NC(=S)Nc2ccccc2)c2ccccc21 , is % of Control Specific Binding Mean less than 90%?
A: Fulfilled

Q: In the record for CCCCCCN1C(=O)/C(=N\NC(=O)Cc2ccccc2)c2ccccc21 , is % of Control Specific Binding Mean less than 90%?
A: Fulfilled

Q: In the record for O=C1/C(=N\NC(=S)Nc2ccccc2)c2ccccc2N1CCC1CCCCC1 , is % of Control Specific Binding Mean less than 90%?
A: Fulfilled

Q: In the record for CCCCCCN1C(=O)/C(=N\NC(=O)c2ccccc2)c2ccccc21 , is % of Control Specific Binding Mean less than 90%?
A: Fulfilled

Q: In the record for CCCCCCN1C(=O)/C(=N\NS(=O)(=O)c2ccccc2)c2ccccc21 , is % of Control Specific Binding Mean less than 90%?
A: Not fulfilled

Continuing:
Q: In the record for O=C(N/N=C1\C(=O)N(CCC2CCCCC2)c2ccccc21)c1ccccc1 , is % of Control Specific Binding Mean less than 90%?
A: Fulfilled

Q: In the record for CCCCCCN1C(=O)/C(=N\NC(=O)Nc2ccccc2)c2ccccc21 , is % of Control Specific Binding Mean less than 90%?
A: Not fulfilled

Q: In the record for O=C(N/N=C1\C(=O)N(CCC2CCCCC2)c2ccccc21)Nc1ccccc1 , is % of Control Specific Binding Mean less than 90%?
A: Not fulfilled

---

Each item that follows carries a reported inhibition at 1 µM.
Biological target: human CB2 (hCB2) receptor (Homo sapiens, UniProt P34972)
Construct: expressed in transfected cells; host or cells: CHO (Chinese hamster ovary) cells, membranes
Sequence (P34972 whole entry): as above
Assay: CB2 binding assay, competitive binding of [3H]WIN 55212-2
Conditions: read-out: % inhibition hCB2 receptor, at 1 μM; specific binding of [3H]-WIN55212-2; CHO membranes
Give your result in % as a bare value.

Noted for CCCCCCN1C(=O)/C(=N\NC(=O)c2ccccc2)c2ccccc21 [Example 6] : its inhibition at 1 µM reads 92.8

Noted for CCCCCCN1C(=O)/C(=N\NC(=O)c2ccccc2)c2cccc(I)c21 [Example 30] : its inhibition at 1 µM reads 66

Continuing:
Noted for CCCCCN1C(=O)/C(=N\NC(=O)c2ccccc2)c2ccccc21 [Example 23] : its inhibition at 1 µM reads 80

Noted for CCCCCCN1C(=O)/C(=N\NC(=O)C2CCCCC2)c2ccccc21 [Example 11] : its inhibition at 1 µM reads 61

Noted for CCCCCCCCCCCCN1C(=O)/C(=N\NC(=O)c2ccccc2)c2ccccc21 [Example 24] : its inhibition at 1 µM reads 24.3

Noted for O=C(N/N=C1\C(=O)N(CC2CCCCC2)c2ccccc21)c1ccccc1 [Example 25] : its inhibition at 1 µM reads 100

---

Each item that follows carries a reported EC50.
Biological target: CB1 (Homo sapiens, UniProt P21554)
Assay: CB1 functional assay, [35S]GTP-γ-S binding
Type: biochemical
Set-up: purchased ES-110-MG; host or cells: CHO membrane extracts
Details: CB1 Functional Activity; read-out: EC50 (nM) for GTP Binding
Give your result in nM as a bare value.

Noted for CCCCCCN1C(=O)/C(=N\NC(=O)Cc2ccccc2)c2ccccc21 : its EC50 reads 459

Next:
Noted for CCCCCCN1C(=O)/C(=N\NC(=O)c2ccccc2)c2ccccc21 : its EC50 reads 867

---

Molecular target: hCB2 receptor (Homo sapiens, UniProt P34972)
Construct: purchased ES-111-MG; host or cells: CHO membrane extracts
Assay: CB2 functional assay, [35S]GTP-γ-S binding
Assay type: biochemical
Conditions: Table 9; relative to the efficacy of CP 55,940
attribute_measured: Emax (%)
Give your result in % as a bare value.

Noted for CCCCCCN1C(=O)/C(=N\NC(=O)c2ccccc2)c2cccc(Cl)c21 : its Emax reads 64.8

Noted for CCCCCCN1C(=O)/C(=N\NC(=O)c2ccccc2)c2ccccc21 : its Emax reads 68.8

Noted for CCCCCN1C(=O)/C(=N\NC(=O)c2ccccc2)c2ccccc21 : its Emax reads 68.5

Noted for CCCCCCN1C(=O)/C(=N\NC(=O)c2ccc(OC)cc2)c2ccccc21 : its Emax reads 49.5

Noted for CCCCN1C(=O)/C(=N\NC(=O)c2ccccc2)c2ccccc21 : its Emax reads 98.9

Noted for CCCCCCN1C(=O)/C(=N\NC(=O)C2CCCCC2)c2ccccc21 : its Emax reads 58

Noted for CCCCCCN1C(=O)/C(=N\NC(=O)c2cccc3ccccc23)c2ccccc21 : its Emax reads 30.5

Noted for CCCCCCN1C(=O)/C(=N\NC(=O)OC(C)(C)C)c2ccccc21 : its Emax reads 43.4

Next:
Noted for CCCCCCN1C(=O)/C(=N\NC(=O)c2ccccc2)c2cccc(C)c21 : its Emax reads 34.2
